subject.of.test: T1, human MSLN-R3-3 polypeptide (human)
T1 construct: also called human MSLN-R3-3 protein; hMSLN-R3-3
method.description: ELISA, coated MSLN-R3-3;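 note: chimeric antibodies in serial dilution bound to plate-coated antigen for 2 h at 37 °C, with a negative control antibody alongside, and TMB colour development stopped with HCl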
Listed here are binders together with their documented OD450 at 10 nM.
Numbers only here, please. The scale is OD450.

| binder | value |
| --- | --- |
| S009-F1.35.24 (antibody, human IgG1, kappa, V domains shown, Human-murine chimeric antibody, human IgG1/kappa constant regions) VH: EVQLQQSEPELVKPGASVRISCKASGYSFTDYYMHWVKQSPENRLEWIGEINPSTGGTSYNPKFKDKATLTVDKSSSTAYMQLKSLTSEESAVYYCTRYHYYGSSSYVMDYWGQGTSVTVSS VL: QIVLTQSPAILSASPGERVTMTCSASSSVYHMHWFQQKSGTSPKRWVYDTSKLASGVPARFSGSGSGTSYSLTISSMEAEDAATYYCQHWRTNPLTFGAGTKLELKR | 0.07 |
| S009-F1.25.10 (antibody, human IgG1, kappa, V domains shown, Human-murine chimeric antibody, human IgG1/kappa constant regions) VH: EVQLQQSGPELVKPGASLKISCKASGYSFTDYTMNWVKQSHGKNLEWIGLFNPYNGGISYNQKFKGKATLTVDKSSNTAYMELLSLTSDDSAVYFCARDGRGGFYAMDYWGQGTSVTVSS VL: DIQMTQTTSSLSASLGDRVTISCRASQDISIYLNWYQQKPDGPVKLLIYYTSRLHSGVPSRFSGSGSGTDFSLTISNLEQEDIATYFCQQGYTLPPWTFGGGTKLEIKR | 2.41 |

Memo: S009-F1.59.1 (antibody, human IgG1, kappa, V domains shown, Human-murine chimeric antibody, human IgG1/kappa constant regions) VH: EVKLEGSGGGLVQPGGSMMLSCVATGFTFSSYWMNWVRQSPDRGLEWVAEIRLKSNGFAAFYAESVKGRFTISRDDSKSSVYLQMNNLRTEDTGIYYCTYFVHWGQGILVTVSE VL: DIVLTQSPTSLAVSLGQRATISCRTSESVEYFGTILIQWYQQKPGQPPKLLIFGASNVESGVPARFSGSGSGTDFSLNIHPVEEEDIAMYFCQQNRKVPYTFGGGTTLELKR , reported OD450 at 10 nM: 0.07
